# ASSAY_COMMENT: in vitro
# Assay type: cell-based, murine
# CONDITION: mouse, sample at 0.5 µg/mL; MTT; cells with LPS only = 100 %; read-out: % Cell viability
QUANTITY_KIND: viability (%)

>>> endpoint_value("COc1cc2ccc(=O)oc2cc1O [Compound 2, scopoletin]")
80.3
>>> endpoint_value("O=c1c(O)c(-c2ccc(O)c(O)c2)oc2cc(O)cc(O)c12 [Quercetin, reference compound]")
105
>>> endpoint_value("COc1ccc(-c2oc3cc(OC)c(OC)c(O)c3c(=O)c2O)cc1O [Compound 4, eupatin]")
79.3
>>> endpoint_value("COc1cc(-c2oc3cc(OC)c(OC)c(O)c3c(=O)c2OC)ccc1O [Compound 3, chrysosplenetin]")
95.6
>>> endpoint_value("C[C@@H]1CC[C@H]2[C@@H](C)C(=O)O[C@@H]3O[C@@]4(C)CC[C@@H]1[C@]32OO4 [Compound 1, artemisinin]")
110

###

# ASSAY_COMMENT: in vitro
# Format: cell-based, murine
# CONDITION: mouse, sample at 20 µg/mL; MTT; cells with LPS only = 100 %; read-out: % Cell viability
viability: recorded values
QUANTITY_KIND: viability

>>> endpoint_value("C[C@@H]1CC[C@H]2[C@@H](C)C(=O)O[C@@H]3O[C@@]4(C)CC[C@@H]1[C@]32OO4")
"80.9%"
>>> endpoint_value("COc1cc2ccc(=O)oc2cc1O")
"81.6%"
>>> endpoint_value("O=c1c(O)c(-c2ccc(O)c(O)c2)oc2cc(O)cc(O)c12 [Quercetin, reference compound]")
"23.1%"
>>> endpoint_value("COc1ccc(-c2oc3cc(OC)c(OC)c(O)c3c(=O)c2O)cc1O")
"7.49%"
>>> endpoint_value("COc1cc(-c2oc3cc(OC)c(OC)c(O)c3c(=O)c2OC)ccc1O")
"15.9%"

###

# Tested on: NO production in LPS-activated RAW 264.7 macrophages
# ASSAY_COMMENT: Nitric oxide inhibitory activity in LPS-activated RAW 264.7 macrophages (Griess reagent)
# Assay type: cell-based, murine
# CONDITION: Mus musculus, RAW264.7, sample at 0.5 µg/mL; relative to LPS control
Classification field: enter label 1 for inhibition at 0.5 µg/mL values not below 40%, label 0 for values below it.

>>> class_name("COc1ccc(-c2oc3cc(OC)c(OC)c(O)c3c(=O)c2O)cc1O")
"label 1"
>>> class_name("COc1cc2ccc(=O)oc2cc1O")
"label 1"
>>> class_name("COc1cc(-c2oc3cc(OC)c(OC)c(O)c3c(=O)c2OC)ccc1O")
"label 0"
>>> class_name("C[C@@H]1CC[C@H]2[C@@H](C)C(=O)O[C@@H]3O[C@@]4(C)CC[C@@H]1[C@]32OO4")
"label 1"
>>> class_name("O=c1c(O)c(-c2ccc(O)c(O)c2)oc2cc(O)cc(O)c12 [Quercetin, reference compound]")
"label 0"

###

# ASSAY_COMMENT: in vitro
# Format: cell-based, murine
# CONDITION: mouse, sample at 2 µg/mL; MTT; cells with LPS only = 100 %; read-out: % Cell viability
QUANTITY_KIND: viability (%)

>>> endpoint_value("O=c1c(O)c(-c2ccc(O)c(O)c2)oc2cc(O)cc(O)c12 [Quercetin, reference compound]")
98.3
>>> endpoint_value("COc1cc2ccc(=O)oc2cc1O [Compound 2, scopoletin]")
69.9
>>> endpoint_value("COc1cc(-c2oc3cc(OC)c(OC)c(O)c3c(=O)c2OC)ccc1O [Compound 3, chrysosplenetin]")
67.4
>>> endpoint_value("COc1ccc(-c2oc3cc(OC)c(OC)c(O)c3c(=O)c2O)cc1O [Compound 4, eupatin]")
48.5
>>> endpoint_value("C[C@@H]1CC[C@H]2[C@@H](C)C(=O)O[C@@H]3O[C@@]4(C)CC[C@@H]1[C@]32OO4 [Compound 1, artemisinin]")
104

###

# ASSAY_COMMENT: in vitro
# Format: cell-based, murine
# CONDITION: mouse, sample at 5 µg/mL; MTT; cells with LPS only = 100 %; read-out: % Cell viability
QUANTITY_KIND: viability (%)

>>> endpoint_value("COc1ccc(-c2oc3cc(OC)c(OC)c(O)c3c(=O)c2O)cc1O")
17.6
>>> endpoint_value("O=c1c(O)c(-c2ccc(O)c(O)c2)oc2cc(O)cc(O)c12 [Quercetin, reference compound]")
76.2
>>> endpoint_value("COc1cc(-c2oc3cc(OC)c(OC)c(O)c3c(=O)c2OC)ccc1O")
28.5
>>> endpoint_value("C[C@@H]1CC[C@H]2[C@@H](C)C(=O)O[C@@H]3O[C@@]4(C)CC[C@@H]1[C@]32OO4")
91.3
>>> endpoint_value("COc1cc2ccc(=O)oc2cc1O")
88.5
